FYI, the data here is from PubChem BioAssay (NCI).

Each entry below carries its recorded growth.
Test system: U251 CNS
METHOD NOTES: NCI-60 one-dose screen, 48 h (100 = growth as untreated, 0 = no growth, -100 = all killed)
COND: 10 µM unless noted
About 83,000 compounds went through this panel and 20% of them were active in at least one assay; those are over-represented in the sample as a whole.
Write down the numeric answer in % and omit the unit.

Illustrative cases are given below, each with its answer.
INPUT: Query (molecule): `C/C(=C\c1ccccc1)c1ccccn1` ; field requested: growth
OUTPUT: 107

INPUT: Query (molecule): `CC(=O)NCC(=O)c1ccc([N+](=O)[O-])cc1` ; field requested: growth
OUTPUT: 102

---
INPUT: Query (molecule): `Brc1ccc(SSc2ccc(Br)cc2)cc1` ; field requested: growth
OUTPUT: 65.8

INPUT: Query (molecule): `O=C(O)CCCl` ; field requested: growth
OUTPUT: 101

INPUT: Query (molecule): NC(=O)NCCCC(N)C(=O)O (stereo not drawn) ; field requested: growth
OUTPUT: 96.2

INPUT: Query (molecule): `COc1ccc2cc1Oc1ccc(cc1)C[C@H]1c3cc(c(OC)cc3CCN1C)Oc1c(OC)c(OC)cc3c1[C@H](C2)N(C)CC3` ; field requested: growth
OUTPUT: 24.2

INPUT: Query (molecule): `CCCCOC(=O)/C=C\C(=O)NC(N)=O` ; field requested: growth
OUTPUT: 96.4

* * *

Tested on: HCT-116 colon
METHOD NOTES: NCI-60 one-dose screen, 48 h (100 = growth as untreated, 0 = no growth, -100 = all killed)
COND: 10 µM unless noted
The panel holds about 83,000 compounds, 20% with a hit somewhere; the sample as a whole holds those more often.
// returns criterion not met unless growth is strictly below 90%, in which case criterion met

INPUT: Bench note: check whether `Cc1ccc(S(=O)(=O)c2ccccc2)cc1` shows growth below 90%
OUTPUT: criterion met

INPUT: Bench note: check whether `C#CCOC(=O)Nc1ccccc1` shows growth below 90%
OUTPUT: criterion not met

INPUT: Bench note: check whether `O=[N+]([O-])c1cccc(SSc2cccc([N+](=O)[O-])c2)c1` shows growth below 90%
OUTPUT: criterion not met

INPUT: Bench note: check whether `O=CN1CCCCC1` shows growth below 90%
OUTPUT: criterion not met

INPUT: Bench note: check whether `Brc1ccc(SSc2ccc(Br)cc2)cc1` shows growth below 90%
OUTPUT: criterion met

Now for a further compound.
INPUT: Bench note: check whether `CC(=O)NCC(=O)c1ccc([N+](=O)[O-])cc1` shows growth below 90%
OUTPUT: criterion not met

* * *

Each entry below carries its recorded growth.
Tested on: HCT-116 colon
METHOD NOTES: NCI-60 one-dose screen, 48 h (100 = growth as untreated, 0 = no growth, -100 = all killed)
COND: 10 µM unless noted
This is part of a sample that, as a whole, favours compounds with a hit. Of some 83,000 tested, about 20% had one in any assay. Active and inactive are the calls of the source. How the source made its calls: active means growth percent below 10; inactive means the rest.

INPUT: Query (compound): `CC1(C)COC(=S)N1` ; field requested: growth
OUTPUT: 105% (inactive)

INPUT: Query (compound): `c1ccc(CNCCNCc2ccccc2)cc1` ; field requested: growth
OUTPUT: 103% (inactive)

INPUT: Query (compound): `CCOC(=O)c1c(C)cc(=O)oc1C` ; field requested: growth
OUTPUT: 95.4% (inactive)

INPUT: Query (compound): `O=C1OC(c2ccccc2)=N/C1=C\c1ccccc1` ; field requested: growth
OUTPUT: 102% (inactive)

INPUT: Query (compound): `CCCCOC(=O)/C=C\C(=O)NC(N)=O` ; field requested: growth
OUTPUT: 80.1% (inactive)

INPUT: Query (compound): OC1COC(OCc2ccccc2)C(O)C1O (configuration not stated) ; field requested: growth
OUTPUT: 99.6% (inactive)

INPUT: Query (compound): COc1cc(C(O)C2C(=O)OCC2C2(c3ccc4c(c3)OCO4)SCCCS2)cc(OC)c1OC (configuration not stated) ; field requested: growth
OUTPUT: 91.7% (inactive)

* * *

System: NCI-H460 lung
METHOD NOTES: NCI-60 one-dose screen, 48 h (100 = growth as untreated, 0 = no growth, -100 = all killed)
COND: 10 µM unless noted
This is part of a sample that, as a whole, favours compounds with a hit. Of some 83,000 tested, about 20% had one in any assay. The source made the active and inactive calls. The calls were made as follows: active = growth percent below 10; inactive = the rest.
MEASURED QUANTITY: growth

INPUT: Query (compound): `CC1(C)COC(=S)N1` ; field requested: growth
OUTPUT: 113% (inactive)

INPUT: Query (compound): `COc1ccc(N/C=C/C2=[N+](C)c3ccccc3C2(C)C)c(OC)c1` ; field requested: growth
OUTPUT: 96.3% (inactive)

INPUT: Query (compound): NC(=O)NCCCC(N)C(=O)O (configuration not stated) ; field requested: growth
OUTPUT: 108% (inactive)

INPUT: Query (compound): `N#CC(C#N)N=Nc1cc(Cl)ccc1Cl` ; field requested: growth
OUTPUT: 102% (inactive)

INPUT: Query (compound): `Cc1ccc(S(=O)(=O)c2ccccc2)cc1` ; field requested: growth
OUTPUT: 20.7% (inactive)

---
INPUT: Query (compound): `Cn1cnc([N+](=O)[O-])c1Sc1ncn[nH]1` ; field requested: growth
OUTPUT: 115% (inactive)

INPUT: Query (compound): COc1ccc(C(=O)CC(c2ccccc2)C(C#N)c2ccccc2)cc1 (configuration not stated) ; field requested: growth
OUTPUT: 92.8% (inactive)

* * *

Test system: SK-OV-3 ovarian
METHOD NOTES: NCI-60 one-dose screen, 48 h (100 = growth as untreated, 0 = no growth, -100 = all killed)
COND: 10 µM unless noted
About 83,000 compounds went through this panel and 20% of them were active in at least one assay; those are over-represented in the sample as a whole.
Each entry below carries its recorded growth.
Write down the numeric answer in % and omit the unit.

INPUT: Query (compound): `CCCCCCCCCCNC(=O)CI` ; field requested: growth
OUTPUT: 5.75

INPUT: Query (compound): `Cc1cc(-c2ccc(N=Nc3ccc4c(S(=O)(=O)O)cc(S(=O)(=O)O)c(N)c4c3O)c(C)c2)ccc1N=Nc1ccc2c(S(=O)(=O)O)cc(S(=O)(=O)O)c(N)c2c1O` ; field requested: growth
OUTPUT: 102

INPUT: Query (compound): CC1CCC(C(C)C)C(NNC(N)=O)C1 (stereo not given) ; field requested: growth
OUTPUT: 109

INPUT: Query (compound): Nc1ncnc2c1ncn2C1OC(COP(=O)(O)O)C(O)C1O (stereo not given) ; field requested: growth
OUTPUT: 114

INPUT: Query (compound): `COc1ccc(N/C=C/C2=[N+](C)c3ccccc3C2(C)C)c(OC)c1` ; field requested: growth
OUTPUT: 90.7

INPUT: Query (compound): `C#CCOC(=O)Nc1ccccc1` ; field requested: growth
OUTPUT: 109

---
INPUT: Query (compound): `COc1ccc2cc1Oc1ccc(cc1)C[C@H]1c3cc(c(OC)cc3CCN1C)Oc1c(OC)c(OC)cc3c1[C@H](C2)N(C)CC3` ; field requested: growth
OUTPUT: 110

INPUT: Query (compound): CC1=C/C(O)CC(=O)Cc2nc(co2)C(=O)N2CCC=C2C(=O)OC(C(C)C)C(C)/C=C\C(=O)NC/C=C\1 (stereo not given) ; field requested: growth
OUTPUT: 119

INPUT: Query (compound): NN1CCOC(c2ccccc2)C1 (stereo not given) ; field requested: growth
OUTPUT: 106

* * *

System: SK-MEL-28 melanoma
METHOD NOTES: NCI-60 one-dose screen, 48 h (100 = growth as untreated, 0 = no growth, -100 = all killed)
COND: 10 µM unless noted
About 83,000 compounds went through this panel and 20% of them were active in at least one assay; those are over-represented in the sample as a whole.
MEASURED QUANTITY: growth (%)
Write down the numeric answer in % and omit the unit.

Illustrative cases are given below, each with its answer.
INPUT: Query (compound): `COc1ccc(N/C=C/C2=[N+](C)c3ccccc3C2(C)C)c(OC)c1` ; field requested: growth
OUTPUT: 113

INPUT: Query (compound): `c1ccc(CNCCNCc2ccccc2)cc1` ; field requested: growth
OUTPUT: 108

INPUT: Query (compound): `Fc1ccc([I+]c2ccc(F)cc2)cc1` ; field requested: growth
OUTPUT: 95.8

INPUT: Query (compound): CCCCCCCCCCCCCCCCC(C(=O)O)C(O)(CC(=O)O)C(=O)O (centres undefined) ; field requested: growth
OUTPUT: 108

INPUT: Query (compound): `Oc1ccc(Cc2ccccc2Cl)c(O)c1` ; field requested: growth
OUTPUT: 110

INPUT: Query (compound): `C/C(=C\c1ccccc1)c1ccccn1` ; field requested: growth
OUTPUT: 107

---
INPUT: Query (compound): `Cc1cc(-c2cc(C)c(O)c(C)c2)cc(C)c1O` ; field requested: growth
OUTPUT: 88

INPUT: Query (compound): `CCCCCCCCCCNC(=O)CI` ; field requested: growth
OUTPUT: 58.4

INPUT: Query (compound): `c1ccc(-c2nc3ccccc3s2)cc1` ; field requested: growth
OUTPUT: 104

INPUT: Query (compound): `COc1ccc(Nc2ccc3ccccc3c2)cc1` ; field requested: growth
OUTPUT: 89.8

INPUT: Query (compound): `CC(C)C(C)(C)c1ccc(O)cc1` ; field requested: growth
OUTPUT: 105
